Where these numbers come from: ChEMBL document CHEMBL5154664

Assay: Inhibition of LPS induced NO production in mouse BV-2 cells by Griess reagent based analysis
Assay type: functional, cell-based
attribute measured: pEC50
In simple prose, pEC50 is minus the logarithm base ten of a concentration in moles per litre.

Use the examples below as a reference point.
| molecule | pEC50 |
| --- | --- |
| C#CCO/N=C(\Cn1ccnc1)c1ccc(Cl)cc1 | 4.81 |
| C=CCO/N=C(\Cn1ccnc1)c1ccc2c(c1)OC(C)(C)O2 | 5.65 |
| CC1(C)Oc2ccc(/C(Cn3ccnc3)=N/OC(=O)/C=C/c3ccc(Br)cc3)cc2O1 | 5.16 |
| CC1(C)Oc2ccc(/C(Cn3ccnc3)=N/OC(=O)/C=C/c3ccc(C(F)(F)F)cc3)cc2O1 | 5.99 |
| C#CC(C)O/N=C(\Cn1ccnc1)c1ccc2c(c1)OCO2 (stereo not drawn) | 5.27 |

Consider the molecule CC1(C)Oc2ccc(/C(Cn3ccnc3)=N/OC(=O)Cc3ccc4ccccc4c3)cc2O1 and give its recorded pEC50.
5.82

Consider the molecule CC1(C)Oc2ccc(/C(Cn3ccnc3)=N/OC(=O)c3cccc4ccccc34)cc2O1 and give its recorded pEC50.
5.79
